Here is a set of compounds with reported pIC50 for Protein O-GlcNAcase (Homo sapiens, UniProt O60502), compiled from the literature.
pIC50: −log10 of the molar value.

For orientation, consider the following solved cases.
CC(c1ccc2scnc2c1)N1CCc2nc[nH]c2CC1 (racemic)    6.70 to 7.30
CC(C)CNC(=O)C[C@@H]1[C@H](O)[C@H](O)[C@@H](CO)N1CCCc1ccccc1    5.36

// query State the recorded pIC50 for this entry: CC(c1ccc2scnc2c1)N1CCc2ccc(OC(F)F)cc2CC1 (racemic)
// result > 7.30

// query Cool, now c1ncc(-c2ccc(CN3CCCC3c3ccc4c(c3)OCCO4)cc2)cn1 (racemic)
// result 6.70 to 7.30

// query Cool, now CC(c1ccc2c(c1)O[C@H](C)C2)N1CCN(c2ncc(S(C)(=N)=O)cn2)CC1 (stereo partly drawn)
// result > 7.30

// query Cool, now COc1ccc2c(c1)CCN(C(C)c1ccc3scnc3c1)CC2 (single isomer, unassigned)
// result 6.00 to 6.70

// query Cool, now c1ccc(-c2ccc(CN3CCCC3c3ccc4c(c3)OCC4)cc2)cc1 (racemic)
// result 6.00 to 6.70

// query Cool, now CC(c1ccc2scnc2c1)N1CCN(c2ncc(C(=O)N=S(C)(C)=O)cn2)CC1 (racemic)
// result > 7.30

----------
Here is a set of compounds with reported IC50 for Protein O-GlcNAcase (Homo sapiens), compiled from the literature.

For orientation, consider the following solved cases.
CCCCCCCCCN1[C@H](CC(=O)NCCCC)[C@H](O)[C@H](O)[C@H]1CO    58 µM
CC(=O)Nc1ncc(CN2CCCc3ccccc3C2C)s1 (racemic)    1 to 10 µM
CSc1ccc2c(c1)CCN(C(C)c1ccc3scnc3c1)CC2 (single isomer, unassigned)    1 to 10 µM

# context switch: different compound, same IC50
// query State the recorded IC50 for this entry: CC(c1ccc2scnc2c1)N1CCC2(CC1)CC(=O)N(Cc1ccc(S(C)(=O)=O)cc1)C2 (racemic)
// result 1 to 10 µM
